What follows is a collection of pIC50 values obtained with UniProt P55789.
Sequence (P55789 81-205): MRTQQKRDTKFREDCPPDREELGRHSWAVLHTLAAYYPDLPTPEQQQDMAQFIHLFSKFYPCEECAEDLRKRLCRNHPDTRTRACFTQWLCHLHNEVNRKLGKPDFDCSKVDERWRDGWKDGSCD
Schema: pIC50 number; meaning minus log10 of the concentration expressed in molar units.

Request: Give recorded pIC50. CC(=O)Nc1cccc(-c2csc(Nc3ccc(C)cn3)n2)c1 [MB-8]
Response: 5.04

Request: Give recorded pIC50. Nc1ccc(N2CCN(C(=O)c3ccco3)CC2)cc1 [MB-13]
Response: 4.97

Reference source: paper PMC10816046
